Values from patent US20090221653A1

- tested-on: Adrenergic β2 (Homo sapiens, UniProt P07550)
- Construct: endogenous in cells; host or cells: H292 cells
- Sequence (P07550 whole entry): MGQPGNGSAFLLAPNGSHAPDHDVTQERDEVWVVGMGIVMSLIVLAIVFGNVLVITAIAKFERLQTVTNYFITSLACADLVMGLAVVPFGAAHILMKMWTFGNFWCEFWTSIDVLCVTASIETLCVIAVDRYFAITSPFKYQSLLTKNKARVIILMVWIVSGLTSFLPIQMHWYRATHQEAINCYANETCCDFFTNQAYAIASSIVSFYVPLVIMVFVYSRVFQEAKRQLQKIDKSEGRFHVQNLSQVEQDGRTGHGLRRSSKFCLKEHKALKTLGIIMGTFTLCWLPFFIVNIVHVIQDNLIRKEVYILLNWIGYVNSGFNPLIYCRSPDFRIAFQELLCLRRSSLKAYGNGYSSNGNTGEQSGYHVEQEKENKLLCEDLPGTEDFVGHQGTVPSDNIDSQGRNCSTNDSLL
- experiment-notes: Alternative Adrenergic β2 Mediated cAMP Production in H292 cells (AlphaScreen cAMP detection)
- Assay type: cell-based
- condition-context: cAMP, test compounds incubated 60 minutes, 300 μM rolipram, read-out: β2 pEC50 (converted)
Structures can show the parent of a compound that is named as a salt.
Please respond with reported EC50 for every item in the list.
Numbers only, in nM.

• C[C@H](CNCCSCCCNC[C@H](O)c1ccc(O)c2[nH]c(=O)sc12)c1ccccc1 = 0.316

State recorded EC50 for all listed compounds.
1. CC(CNCCCSCCNC[C@H](O)c1ccc(O)c2[nH]c(=O)sc12)c1ccccc1 (mixture of isomers) [Example 44, dihydrochloride]
2. O=c1[nH]c2c(O)ccc([C@@H](O)CNCCCS(=O)(=O)CCOCCc3cccc4ccccc34)c2s1 [Example 2, trifluoroacetate]
3. O=c1[nH]c2c(O)ccc([C@@H](O)CNCCSCCCNCCc3cccc(C(F)(F)F)c3)c2s1
4. C[C@@H](CNCCSCCCNC[C@H](O)c1ccc(O)c2[nH]c(=O)sc12)c1ccccc1
5. O=c1[nH]c2c(O)ccc([C@@H](O)CNCCSCCCNCCc3cccc(Cl)c3)c2s1 [Example 40, dihydrochloride]

## Output
0.631
0.158
3.16
1
1

## Input Identify measured EC50 corresponding to Cl.O=c1[nH]c2c(O)ccc([C@@H](O)CNCCCSCCCOCCc3ccc(Br)cc3)c2s1 [Example 5, hydrochloride]
## Output 0.0501
